The origin of these recorded values is the supplement of paper PMC12406974.

# Test system: U2OS PTBP1-KO
# MEASUREMENT PROTOCOL: maximum observed lethal fraction; higher = more cell death;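 also: FLICK assay: SYTOX Green fluorescence of dead cells tracked over time after drugging in 96-well plates, with total cell counts taken from Triton X-100 lysed wells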
# TEST CONTEXT: 0.1 µM
VALUE KIND: maximum observed lethal fraction
The answer should be written as a number, with no unit following it.

Looking up `C[C@H]1CCC/C=C/[C@@H]2C[C@H](O)C[C@H]2[C@H](O)/C=C/C(=O)O1` , I found its maximum observed lethal fraction recorded as 0.257

Looking up `NC(=O)c1cccc2cn(-c3ccc([C@@H]4CCCNC4)cc3)nc12` , I found its maximum observed lethal fraction recorded as 0.0698

Looking up `C=CC(=O)Nc1ccc(C(=O)Nc2[nH]nc3c2CN(C(=O)N[C@H](CN(C)C)c2ccccc2)C3(C)C)cc1` , I found its maximum observed lethal fraction recorded as 0.0809

Looking up Nc1ncnc2c1ncn2[C@@H]1O[C@H](CO)C[C@H]1O [Cordycepin] , I found its maximum observed lethal fraction recorded as 0.068

Looking up `CC(C)C[C@H](NC(=O)[C@H](Cc1ccccc1)NC(=O)c1cnccn1)B(O)O` , I found its maximum observed lethal fraction recorded as 0.731

Looking up `CO[C@H]1C[C@@H]2CC[C@@H](C)[C@@](O)(O2)C(=O)C(=O)N2CCCC[C@H]2C(=O)O[C@H]([C@H](C)C[C@@H]2CC[C@@H](O)[C@H](OC)C2)CC(=O)[C@H](C)/C=C(\C)[C@@H](O)[C@@H](OC)C(=O)[C@H](C)C[C@H](C)/C=C/C=C/C=C/1C` , I found its maximum observed lethal fraction recorded as 0.0757

Looking up `CN1CC[C@H](c2c(O)cc(O)c3c(=O)cc(-c4ccccc4Cl)oc23)[C@H](O)C1` , I found its maximum observed lethal fraction recorded as 0.099

Looking up `C/C=C(/C)C(=O)O[C@H]1C(C)=C2[C@H]([C@@H]1OC(=O)CCCCCCC)[C@@](C)(OC(C)=O)C[C@H](OC(=O)CCC)[C@@]1(O)[C@H]2OC(=O)[C@@]1(C)O` , I found its maximum observed lethal fraction recorded as 0.265

Looking up `CC(=O)[C@]1(O)Cc2c(O)c3c(c(O)c2[C@@H](O[C@H]2C[C@H](N)[C@H](O)[C@H](C)O2)C1)C(=O)c1ccccc1C3=O` , I found its maximum observed lethal fraction recorded as 0.633

Looking up `Cc1c2oc3c(C)ccc(C(=O)N[C@@H]4C(=O)N[C@H](C(C)C)C(=O)N5CCC[C@H]5C(=O)N(C)CC(=O)N(C)[C@@H](C(C)C)C(=O)O[C@@H]4C)c3nc-2c(C(=O)N[C@@H]2C(=O)N[C@H](C(C)C)C(=O)N3CCC[C@H]3C(=O)N(C)CC(=O)N(C)[C@@H](C(C)C)C(=O)O[C@@H]2C)c(N)c1=O` , I found its maximum observed lethal fraction recorded as 0.243

Looking up `CC[C@@]1(O)C(=O)OCc2c1cc1n(c2=O)Cc2cc3c(CN(C)C)c(O)ccc3nc2-1` , I found its maximum observed lethal fraction recorded as 0.0838

Looking up `CC(=O)c1c(C)c2cnc(Nc3ccc(N4CCNCC4)cn3)nc2n(C2CCCC2)c1=O` , I found its maximum observed lethal fraction recorded as 0.0739

Looking up `CN(C)C(=O)c1cc2cnc(Nc3ccc(N4CCNCC4)cn3)nc2n1C1CCCC1` , I found its maximum observed lethal fraction recorded as 0.064

Looking up CC(=O)N[C@H]1[C@@H](O[C@@H]2O[C@H](CC(O)[C@H]3O[C@@H](n4ccc(=O)[nH]c4=O)[C@H](O)[C@@H]3O)[C@H](O)[C@H](O)[C@H]2NC(=O)/C=C/CC(C)C)O[C@H](CO)[C@@H](N)[C@@H]1O (some centres undefined) , I found its maximum observed lethal fraction recorded as 0.0724

Looking up `Nc1cc(C(F)(F)F)c(-c2cc(N3CCOCC3)nc(N3CCOCC3)n2)cn1` , I found its maximum observed lethal fraction recorded as 0.0916

Looking up `O=C(CCCCCCC(=O)Nc1ccccc1)NO` , I found its maximum observed lethal fraction recorded as 0.0673

Looking up COc1cc([C@@H]2c3cc4c(cc3[C@@H](O[C@@H]3O[C@@H]5CO[C@@H](C)O[C@H]5[C@H](O)[C@H]3O)[C@H]3COC(=O)[C@H]23)OCO4)cc(OC)c1O [Etoposide] , I found its maximum observed lethal fraction recorded as 0.0782

Looking up `CN(C)C/C=C/C(=O)Nc1ccc(C(=O)Nc2cccc(Nc3ncc(Cl)c(-c4c[nH]c5ccccc45)n3)c2)cc1` , I found its maximum observed lethal fraction recorded as 0.388

Looking up `CC1(C)CCC(c2ccc(Cl)cc2)=C(CN2CCN(c3ccc(C(=O)NS(=O)(=O)c4ccc(N[C@H](CCN5CCOCC5)CSc5ccccc5)c(S(=O)(=O)C(F)(F)F)c4)cc3)CC2)C1` , I found its maximum observed lethal fraction recorded as 0.0713

Looking up `COC(=O)C[C@](O)(CCCC(C)(C)O)C(=O)O[C@@H]1C(OC)=C[C@]23CCCN2CCc2cc4c(cc2[C@H]13)OCO4` , I found its maximum observed lethal fraction recorded as 0.0974

Looking up `NC1(C(=O)N[C@@H](CCO)c2ccc(Cl)cc2)CCN(c2nc[nH]c3nccc2-3)CC1` , I found its maximum observed lethal fraction recorded as 0.0911

Looking up `CN(C)CC[C@H](CSc1ccccc1)Nc1ccc(S(=O)(=O)NC(=O)c2ccc(N3CCN(Cc4ccccc4-c4ccc(Cl)cc4)CC3)cc2)cc1[N+](=O)[O-]` , I found its maximum observed lethal fraction recorded as 0.0736

Looking up `CN[C@@H]1C[C@H]2O[C@@](C)([C@@H]1OC)n1c3ccccc3c3c4c(c5c6ccccc6n2c5c31)C(=O)NC4` , I found its maximum observed lethal fraction recorded as 0.93

Looking up `CC1(C)CCC(CN2CCN(c3ccc(C(=O)NS(=O)(=O)c4ccc(NCC5CCOCC5)c([N+](=O)[O-])c4)c(Oc4cnc5[nH]ccc5c4)c3)CC2)=C(c2ccc(Cl)cc2)C1` , I found its maximum observed lethal fraction recorded as 0.0644

====

Consider the following compounds; for each one, report its maximum observed lethal fraction.
# System: U2OS PTBP1-KO
# MEASUREMENT PROTOCOL: maximum observed lethal fraction; higher = more cell death
# TEST CONTEXT: 3.16 µM

Looking up `CN[C@@H]1C[C@H]2O[C@@](C)([C@@H]1OC)n1c3ccccc3c3c4c(c5c6ccccc6n2c5c31)C(=O)NC4` , I found its maximum observed lethal fraction recorded as 0.781

Looking up `CC[C@@]1(O)C(=O)OCc2c1cc1n(c2=O)Cc2cc3ccccc3nc2-1` , I found its maximum observed lethal fraction recorded as 0.295

Looking up `CO[C@H]1C[C@@H]2CC[C@@H](C)[C@@](O)(O2)C(=O)C(=O)N2CCCC[C@H]2C(=O)O[C@H]([C@H](C)C[C@@H]2CC[C@@H](O)[C@H](OC)C2)CC(=O)[C@H](C)/C=C(\C)[C@@H](O)[C@@H](OC)C(=O)[C@H](C)C[C@H](C)/C=C/C=C/C=C/1C` , I found its maximum observed lethal fraction recorded as 0.0724

Looking up `C#C[C@@]1(O)[C@@H](CO)O[C@@H](n2ccc(N)nc2=O)[C@@H]1O` , I found its maximum observed lethal fraction recorded as 0.329

Looking up `CN(C)C/C=C/C(=O)Nc1ccc(C(=O)N2CCC[C@@H](Nc3ncc(Cl)c(-c4c[nH]c5ccccc45)n3)C2)cc1` , I found its maximum observed lethal fraction recorded as 0.314

Looking up `CN1CC[C@H](c2c(O)cc(O)c3c(=O)cc(-c4ccccc4Cl)oc23)[C@H](O)C1` , I found its maximum observed lethal fraction recorded as 0.247

====

# System: U2OS
# MEASUREMENT PROTOCOL: maximum observed lethal fraction; higher = more cell death
# TEST CONTEXT: 0.001 µM
We use 0.06 as the dividing line for maximum observed lethal fraction: on or above the line is fulfilled, below is not fulfilled.

-- ask Form field: maximum observed lethal fraction at least 0.06? Entry: CC(C)C[C@H](NC(=O)[C@H](Cc1ccccc1)NC(=O)c1cnccn1)B(O)O [Bortezomib]
-- reply not fulfilled

-- ask Form field: maximum observed lethal fraction at least 0.06? Entry: Cc1[nH]c2ccccc2c1CCNCc1ccc(/C=C/C(=O)NO)cc1 [Panobinostat]
-- reply fulfilled

-- ask Form field: maximum observed lethal fraction at least 0.06? Entry: Cc1c2oc3c(C)ccc(C(=O)N[C@@H]4C(=O)N[C@H](C(C)C)C(=O)N5CCC[C@H]5C(=O)N(C)CC(=O)N(C)[C@@H](C(C)C)C(=O)O[C@@H]4C)c3nc-2c(C(=O)N[C@@H]2C(=O)N[C@H](C(C)C)C(=O)N3CCC[C@H]3C(=O)N(C)CC(=O)N(C)[C@@H](C(C)C)C(=O)O[C@@H]2C)c(N)c1=O [Actinomycin-D]
-- reply fulfilled

-- ask Form field: maximum observed lethal fraction at least 0.06? Entry: CC(=O)[C@]1(O)Cc2c(O)c3c(c(O)c2[C@@H](O[C@H]2C[C@H](N)[C@H](O)[C@H](C)O2)C1)C(=O)c1ccccc1C3=O [Idarubicin]
-- reply fulfilled
